Biological target: SIRT1 (Homo sapiens)
Test: TAMRA based mass spectrometry assay of SIRT1 activity
Assay type: biochemical
Conditions: TAMRA assay; percent maximum fold activation; read-out: TAMRA % Fold Act
property: Emax

Below, 3 compounds whose answers are already recorded.
compound	endpointResult
O=C(Nc1cnc2ccc(-c3ccccc3Cl)nn12)c1cnccn1	< 350%
Cc1cc2ncc(C(=O)Nc3cccnc3)n2nc1-c1ccccc1C(F)(F)F	≥ 350%
O=C(Nc1cnc2ccc(-c3ccccc3F)nn12)c1cccc(OCC(O)CO)n1 (stereo not drawn)	< 350%

Emax lookup needed for COc1ccc(NC(=O)c2c(C)nc3ccc(-c4ccccc4Cl)nn23)nn1 , thanks. < 350%

What value of measured Emax is listed for Cc1ccnc(C(=O)Nc2cnc3ccc(-c4ccccc4C(F)(F)F)nn23)c1 ? ≥ 350%

Which Emax is reported for this compound? Cc1cc(NC(=O)c2cnn3ccc(-c4ccccc4C(F)(F)F)nc23)ccn1 ≥ 350%

Give its Emax value. Item: O=C(Nc1cnn2ccc(-c3ccccc3C(F)(F)F)nc12)c1nc2c(s1)CCCC2 ≥ 350%

###

Target: SIRT1 (Homo sapiens)
Test: TAMRA based mass spectrometry assay of SIRT1 activity
Format: biochemical
Conditions: TAMRA assay; percent maximum fold activation; read-out: TAMRA % Fold Act
property: Emax

Give the reported Emax for O=C(Nc1ccncn1)c1cnc2ccc(-c3ccccc3OC(F)(F)F)nn12 [Compound 358] (system: SIRT1 (Homo sapiens)). ≥ 350%

Param readout = Emax; param system = SIRT1 (Homo sapiens); param query = O=C(Nc1cnc2ccc(-c3ccccc3F)nn12)c1nccs1 [Compound 303] ; response: value < 350%

API: value(readout= Emax, system= SIRT1 (Homo sapiens), query= Cc1nccc(NC(=O)c2c(C)nn3ccc(-c4ccccc4C(F)(F)F)nc23)c1C [Compound 639] ) ≥ 350%

What measured Emax is associated with Cc1cc(NC(=O)c2c(C)nn3ccc(-c4ccccc4C(F)(F)F)nc23)cc(C)n1 [Compound 648] on SIRT1 (Homo sapiens)? ≥ 350%

###

Target: SIRT1 (Homo sapiens, UniProt Q96EB6)
Sequence (Q96EB6 whole entry): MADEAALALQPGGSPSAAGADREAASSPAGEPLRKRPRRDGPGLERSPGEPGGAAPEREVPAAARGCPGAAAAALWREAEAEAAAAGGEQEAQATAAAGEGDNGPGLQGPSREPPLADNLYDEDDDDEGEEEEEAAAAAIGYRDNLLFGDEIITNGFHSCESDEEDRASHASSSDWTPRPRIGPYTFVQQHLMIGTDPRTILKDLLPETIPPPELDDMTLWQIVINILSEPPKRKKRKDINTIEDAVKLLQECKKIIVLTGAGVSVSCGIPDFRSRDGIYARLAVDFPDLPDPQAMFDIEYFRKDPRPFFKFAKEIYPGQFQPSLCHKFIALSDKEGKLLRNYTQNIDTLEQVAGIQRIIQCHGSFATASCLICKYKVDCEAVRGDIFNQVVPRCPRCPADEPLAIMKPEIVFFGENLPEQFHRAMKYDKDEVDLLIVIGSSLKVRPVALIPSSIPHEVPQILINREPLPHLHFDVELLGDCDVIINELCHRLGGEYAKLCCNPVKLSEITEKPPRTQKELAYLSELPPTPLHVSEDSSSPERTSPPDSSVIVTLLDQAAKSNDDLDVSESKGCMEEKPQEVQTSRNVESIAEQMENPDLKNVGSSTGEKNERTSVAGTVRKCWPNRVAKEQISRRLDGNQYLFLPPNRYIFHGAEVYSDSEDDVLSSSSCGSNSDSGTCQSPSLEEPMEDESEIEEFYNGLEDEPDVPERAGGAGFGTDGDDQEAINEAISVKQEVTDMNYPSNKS
Assay: Trp mass spectrometry assay of SIRT1 activity
Type: biochemical
Conditions: Trp peptide substrate; percent maximum fold activation; read-out: Trp % Fold Act
property: Emax

Any idea what Emax was measured for Cc1cc(C)nc(C(=O)Nc2cnc3ccc(N4CC[C@H](F)C4)nn23)c1 ? < 350%

Form field: reported Emax of Cc1cc(-c2ccccc2C(F)(F)F)nn2c(NC(=O)c3cccc(N4CCOCC4)n3)cnc12 ≥ 350%

Consider the compound Cc1cc(-c2ccccc2C(F)(F)F)nn2c(C(=O)Nc3ccc(F)cn3)cnc12 and give its measured Emax. < 350%

# get_value(readout='Emax', item= Cc1nc(C(=O)Nc2cnc3c(C)cc(-c4ccccc4C(F)(F)F)nn23)c(C)s1 ) < 350%

Name the reported Emax value associated with the compound O=C(Nc1ncn2ccc(-c3ccccc3C(F)(F)F)nc12)c1ccccn1 < 350%

May I ask what Emax has been recorded for Cc1nc2ccc(-c3ccccc3OC(F)(F)F)nn2c1C(=O)Nc1ccncc1F ? ≥ 350%

Item COc1cccc(C(=O)Nc2cnn3ccc(-c4ccccc4C(F)(F)F)nc23)n1 has what recorded Emax? < 350%

Suppose we examine the compound O=C(Nc1cccc(N2CCOCC2)n1)c1cnc2ccc(N3CC[C@H](F)C3)nn12 ; what Emax value has been reported? ≥ 350%
